# System Name: T1, Ang2 with F469 mutated with alanine, tagged with FLAG (human, UniProt O15123 19-496, limits assumed)
# T1 sequence: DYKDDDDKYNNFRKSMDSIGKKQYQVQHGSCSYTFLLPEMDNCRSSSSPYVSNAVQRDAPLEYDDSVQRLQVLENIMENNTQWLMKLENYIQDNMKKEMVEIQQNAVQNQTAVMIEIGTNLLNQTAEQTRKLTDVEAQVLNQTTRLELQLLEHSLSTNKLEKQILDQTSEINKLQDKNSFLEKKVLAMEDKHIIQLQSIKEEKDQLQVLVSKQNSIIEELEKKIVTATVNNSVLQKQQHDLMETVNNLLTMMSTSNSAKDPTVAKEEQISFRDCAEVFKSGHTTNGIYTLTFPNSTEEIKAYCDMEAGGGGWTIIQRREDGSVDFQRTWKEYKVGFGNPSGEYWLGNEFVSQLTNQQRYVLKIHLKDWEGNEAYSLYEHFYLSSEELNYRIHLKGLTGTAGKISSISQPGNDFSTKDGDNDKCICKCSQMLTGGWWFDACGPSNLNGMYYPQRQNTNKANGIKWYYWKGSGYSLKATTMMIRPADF
# Experiment: ELISA, scFv coated, 250 ng FLAG-tagged Ang2 mutant, anti-FLAG-HRP
Measured Parameter: Relative binding (%) with Mutant Ang2 compared to the binding with native Ang2
One number for each entry, in %.

Binder: SAIT-ANG-2-AB-4-F11 (scFv form) (scFv, V domains shown, scFv from a phage display library) VH: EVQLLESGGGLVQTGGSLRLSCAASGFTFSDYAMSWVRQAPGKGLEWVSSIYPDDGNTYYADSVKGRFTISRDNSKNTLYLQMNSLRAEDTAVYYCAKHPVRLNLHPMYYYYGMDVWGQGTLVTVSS VL: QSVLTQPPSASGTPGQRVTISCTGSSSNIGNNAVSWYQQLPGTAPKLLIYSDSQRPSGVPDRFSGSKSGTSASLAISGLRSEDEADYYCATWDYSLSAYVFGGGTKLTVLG
Unit: %
Assay Result: 105
//
Binder: SAIT-ANG-2-AB-4-F5 (scFv form) (scFv, V domains shown, scFv from a phage display library) VH: EVQLLESGGGLVQPGGSLRLSCAASGFTFSDYDMSWVRQAPGKGLEWVSSISHGDSNKYYADSVKGRFTISRDNSKNTLYLQMNSLRAEDTAVYYCAKSSGIQESPPTYYYYGMDVWGQGTLVTVSS VL: QSVLTQPPSASGTPGQRVTISCSGSSSNIGSNAVNWYQQLPGTAPKLLIYADSNRPSGVPDRFSGSKSGTSASLAISGLRSEDEADYYCGSWDYSLSGYVFGGGTKLTVLG
Unit: %
Assay Result: 259

Your task in this section: give Relative binding (%) with Mutant Ang2 compared to the binding with native Ang2 for each listed record.
1. SAIT-ANG-2-AB-3-D3 (scFv form) (scFv, V domains shown, scFv from a phage display library) VH: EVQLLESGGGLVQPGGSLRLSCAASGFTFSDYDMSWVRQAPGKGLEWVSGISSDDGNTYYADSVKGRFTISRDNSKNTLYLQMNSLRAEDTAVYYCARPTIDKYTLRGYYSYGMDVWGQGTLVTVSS VL: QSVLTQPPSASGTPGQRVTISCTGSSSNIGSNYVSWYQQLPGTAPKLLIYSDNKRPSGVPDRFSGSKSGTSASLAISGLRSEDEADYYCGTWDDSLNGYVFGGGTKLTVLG
2. SAIT-ANG-2-AB-2-E6 (scFv form) (scFv, V domains shown, scFv from a phage display library, partly purified from E. coli periplasm on Ni-NTA and detected with anti-HA) VH: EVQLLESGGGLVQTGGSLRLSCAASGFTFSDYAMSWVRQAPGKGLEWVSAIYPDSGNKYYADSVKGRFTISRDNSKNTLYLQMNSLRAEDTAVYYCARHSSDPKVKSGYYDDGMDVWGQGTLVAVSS VL: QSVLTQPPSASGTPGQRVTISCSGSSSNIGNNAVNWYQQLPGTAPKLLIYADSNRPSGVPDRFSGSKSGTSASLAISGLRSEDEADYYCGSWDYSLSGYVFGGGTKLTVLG
3. SAIT-ANG-2-AB-8-A5 (scFv form) (scFv, V domains shown, scFv from a phage display library) VH: EVQLLESGGGLVQPGGSLRLSCAASGFTFSDYYMSWVRQAPGKGLEWVSGIYPSGGSTYYADSVKGRFTISRDNSKNTLYLQMNSLRAEDTAVYYCARDPSTLTYAGFDYWGQGTLVTVSS VL: QSVLTQPPSASGTPGQRVTISCSGSSSNIGNNYVTWYQQLPGTAPKLLIYADSHRPSGVPDRFSGSKSGTSASLAISGLRSEDEADYYCATWDYSLSGYVFGGGTKLTVLG

Given back:
[96.4, 112, 102]

Your task in this section: give Relative binding (%) with Mutant Ang2 compared to the binding with native Ang2 for each listed record.
1. SAIT-ANG-2-AB-7-C9 (scFv form) (scFv, V domains shown, scFv from a phage display library) VH: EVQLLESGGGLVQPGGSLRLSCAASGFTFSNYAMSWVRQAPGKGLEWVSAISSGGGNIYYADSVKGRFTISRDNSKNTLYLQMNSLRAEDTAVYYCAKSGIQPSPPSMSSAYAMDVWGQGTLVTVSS VL: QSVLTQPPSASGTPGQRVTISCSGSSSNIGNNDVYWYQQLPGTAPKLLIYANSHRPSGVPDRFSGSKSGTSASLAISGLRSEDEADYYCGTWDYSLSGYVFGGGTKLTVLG
2. SAIT-ANG-2-AB-4-C11 (scFv form) (scFv, V domains shown, scFv from a phage display library) VH: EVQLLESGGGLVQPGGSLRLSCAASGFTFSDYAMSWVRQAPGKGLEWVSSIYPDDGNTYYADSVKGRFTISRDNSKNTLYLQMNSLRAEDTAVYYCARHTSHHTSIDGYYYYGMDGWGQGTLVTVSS VL: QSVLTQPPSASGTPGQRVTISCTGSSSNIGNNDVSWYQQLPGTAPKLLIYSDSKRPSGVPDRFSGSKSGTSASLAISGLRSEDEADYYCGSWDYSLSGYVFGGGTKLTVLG

Given back:
89.4
102

The reported measurements were obtained from patent US20150152192A1.
